Measured inhibition at 0.05 µg/mL by item
System: Septoria tritici isolate USA-184
protocol: In vitro fungitoxicity of hydrazones with and without copper towards Septoria tritici (Example 30, Table 5)
Format: cell-based
assay.conditions: Zymoseptoria tritici; 0.05 μg/mL; copper-minus medium; 90 h; read-out: % Inhibition Minus copper Observed
observable: inhibition at 0.05 µg/mL (%)

> print(dat)
                                    compound                     target.system  result.unit  measured.result
 1  O=C(N/N=C/c1cc(C(F)(F)F)cc(C(F)(F)F)c1O)c1ccc(Cl)cc1 [Example 337]  Septoria tritici isolate USA-184            %             46.8
 2  O=C(N/N=C/c1cc(Cl)ccc1O)c1ccccc1 [Example 20]  Septoria tritici isolate USA-184            %                0
 3  O=C(N/N=C/c1cccc(Cl)c1O)c1cccc(Cl)c1 [Example 427]  Septoria tritici isolate USA-184            %             43.8
 4  Cc1ccc(C(=O)N/N=C/c2ccc(Cl)c(Cl)c2O)c(O)c1 [Example 364]  Septoria tritici isolate USA-184            %             22.4
 5  O=C(N/N=C/c1cc(Cl)cc(C(F)(F)F)c1O)c1ccccc1O [Example 384]  Septoria tritici isolate USA-184            %             57.5
 6  O=C(N/N=C/c1cc(Cl)cc(C(F)(F)F)c1O)c1ccccc1 [Example 320]  Septoria tritici isolate USA-184            %              9.5
 7  COc1cc(Br)cc(/C=N/NC(=O)c2cccc(Br)c2)c1O [Example 204]  Septoria tritici isolate USA-184            %                0
 8  O=C(N/N=C/c1cc(C(F)(F)F)cc(Cl)c1O)c1ccccc1O [Example 329]  Septoria tritici isolate USA-184            %             14.9
 9  O=C(N/N=C/c1cc(Cl)cc(Cl)c1O)c1ccccc1O [Example 69]  Septoria tritici isolate USA-184            %                0
10  O=C(N/N=C/c1cc(Cl)cc(Cl)c1O)c1ccccc1 [Example 16]  Septoria tritici isolate USA-184            %             35.8
11  O=C(N/N=C/c1cc(C(F)(F)F)ccc1O)c1ccccc1 [Example 277]  Septoria tritici isolate USA-184            %              3.6
12  C/C(=N\NC(=O)c1ccccc1)c1ccccc1O [Example 230]  Septoria tritici isolate USA-184            %             43.6
13  O=C(N/N=C/c1cccc(C(F)(F)F)c1O)c1ccccc1O [Example 351]  Septoria tritici isolate USA-184            %             44.4
14  O=C(N/N=C/c1cc(C(F)(F)F)cc(Cl)c1O)c1ccccc1 [Example 275]  Septoria tritici isolate USA-184            %             16.2
15  O=C(N/N=C/c1cc(C(F)(F)F)ccc1O)c1ccccc1O [Example 443]  Septoria tritici isolate USA-184            %              5.8
16  O=C(N/N=C/c1c(Cl)ccc(Cl)c1O)c1cccc(Cl)c1 [Example 369]  Septoria tritici isolate USA-184            %              9.3
17  C/C(=N\NC(=O)c1ccc(Cl)cc1)c1cc(F)cc(F)c1O [Example 578]  Septoria tritici isolate USA-184            %             26.7
18  O=C(N/N=C/c1cc(Cl)ccc1O)c1ccccc1O [Example 177]  Septoria tritici isolate USA-184            %              0.2
19  O=C(N/N=C/c1c(C(F)(F)F)ccc(Cl)c1O)c1ccccc1O [Example 455]  Septoria tritici isolate USA-184            %             27.5
20  C/C(=N\NC(=O)c1ccccc1)c1cc(Cl)cc(Cl)c1O [Example 60]  Septoria tritici isolate USA-184            %             20.6
